Origin of the recorded values: paper PMC9694544

# ASSAY METHOD TEXT: clinical
# STATED CONDITIONS: human, in vivo, single-dose administration; read-out: mean Tmax across dose cohorts
QUANTITY NAME: Tmax

Exercise: What measured Tmax goes with `COc1cc(N2CCC(N3CCN(C)CC3)CC2)ccc1Nc1nc2c(c(Nc3ccccc3S(=O)(=O)NC(C)C)n1)CCN2` ?
Key: 2 to 4.6 h

* * *

# ASSAY METHOD TEXT: clinical
# STATED CONDITIONS: human, in vivo, single-dose administration; read-out: mean T1/2 across dose cohorts
QUANTITY NAME: half-life

Exercise: What measured half-life goes with `COc1cc(N2CCC(N3CCN(C)CC3)CC2)ccc1Nc1nc2c(c(Nc3ccccc3S(=O)(=O)NC(C)C)n1)CCN2` ?
Key: 16.7 to 90.2 h

* * *

# ASSAY METHOD TEXT: clinical
# STATED CONDITIONS: human, in vivo, cycle 1 day 28 of dose-escalation phase, 300 mg (n=3), mean; read-out: T1/2 (converted)
QUANTITY NAME: half-life (h)
Lab book: enter the figure in h, no units written.

Exercise: What measured half-life goes with `COc1cc(N2CCC(N3CCN(C)CC3)CC2)ccc1Nc1nc2c(c(Nc3ccccc3S(=O)(=O)NC(C)C)n1)CCN2` ?
Key: 50.9

* * *

# ASSAY METHOD TEXT: clinical
# STATED CONDITIONS: human, in vivo, cycle 1 day 28 of dose-escalation phase, 600 mg (n=7), mean; read-out: AUCINF_obs
# Description: For single-dose PK parameters, plasma samples were taken at pre-dose and 0.5 h, 1 h, 2 h, 3 h, 4 h, 6 h, 8 h, 12 h, 24 h, 48 h, 72 h, 96 h, 120 h, 144 h, and 168 h post-dose in PK lead-in phase of dose-escalation phase, and plasma samples were also taken at pre-dose and 0.5 h, 1 h, 2 h, 3 h, 4 h, 6 h, 8 h, 12 h, and 24 h post-dose in cycle 1 day 1 of dose-expansion phase. […]
QUANTITY NAME: AUC(0-inf) (ng·h/mL)
Lab book: enter the figure in ng·h/mL, no units written.

Exercise: What measured AUC(0-inf) goes with COc1cc(N2CCC(N3CCN(C)CC3)CC2)ccc1Nc1nc2c(c(Nc3ccccc3S(=O)(=O)NC(C)C)n1)CCN2 [Conteltinib] ?
Key: 53800

* * *

# ASSAY METHOD TEXT: clinical
# STATED CONDITIONS: human, in vivo, cycle 1 day 28 of dose-escalation phase, 600 mg (n=7), mean
QUANTITY NAME: AUC(0-t) (ng·h/mL)
Lab book: enter the figure in ng·h/mL, no units written.

Exercise: What measured AUC(0-t) goes with `COc1cc(N2CCC(N3CCN(C)CC3)CC2)ccc1Nc1nc2c(c(Nc3ccccc3S(=O)(=O)NC(C)C)n1)CCN2` ?
Key: 14000

* * *

# ASSAY METHOD TEXT: clinical
# STATED CONDITIONS: human, in vivo, single dose, PK lead-in phase of dose-escalation phase, 600 mg (n=7), mean; read-out: Cmax
QUANTITY NAME: Cmax (ng/mL)
Lab book: enter the figure in ng/mL, no units written.

Exercise: What measured Cmax goes with COc1cc(N2CCC(N3CCN(C)CC3)CC2)ccc1Nc1nc2c(c(Nc3ccccc3S(=O)(=O)NC(C)C)n1)CCN2 [Conteltinib] ?
Key: 452

* * *

# ASSAY METHOD TEXT: clinical
# STATED CONDITIONS: human, in vivo, cycle 1 day 28 of dose-escalation phase, 300 mg (n=3), mean; read-out: Cmax
QUANTITY NAME: Cmax (ng/mL)
Lab book: enter the figure in ng/mL, no units written.

Exercise: What measured Cmax goes with `COc1cc(N2CCC(N3CCN(C)CC3)CC2)ccc1Nc1nc2c(c(Nc3ccccc3S(=O)(=O)NC(C)C)n1)CCN2` ?
Key: 282

* * *

# ASSAY METHOD TEXT: clinical
# STATED CONDITIONS: human, in vivo, 100 mg, single dose, cycle 1 day 1 of dose-expansion phase, 100 mg (n=5), mean; read-out: T1/2 (converted)
QUANTITY NAME: half-life (h)
Lab book: enter the figure in h, no units written.

Exercise: What measured half-life goes with `COc1cc(N2CCC(N3CCN(C)CC3)CC2)ccc1Nc1nc2c(c(Nc3ccccc3S(=O)(=O)NC(C)C)n1)CCN2` ?
Key: 26.7

* * *

# ASSAY METHOD TEXT: clinical
# STATED CONDITIONS: human, in vivo, 450 mg, cycle 1 day 28 of dose-expansion phase, 450 mg (n=10), mean; read-out: Cmax
QUANTITY NAME: Cmax

Exercise: What measured Cmax goes with `COc1cc(N2CCC(N3CCN(C)CC3)CC2)ccc1Nc1nc2c(c(Nc3ccccc3S(=O)(=O)NC(C)C)n1)CCN2` ?
Key: 491 ng/mL

* * *

# ASSAY METHOD TEXT: clinical
# STATED CONDITIONS: human, in vivo, cycle 1 day 28 of dose-escalation phase, 50 mg (n=2), mean; read-out: AUCINF_obs
QUANTITY NAME: AUC(0-inf) (ng·h/mL)
Lab book: enter the figure in ng·h/mL, no units written.

Exercise: What measured AUC(0-inf) goes with `COc1cc(N2CCC(N3CCN(C)CC3)CC2)ccc1Nc1nc2c(c(Nc3ccccc3S(=O)(=O)NC(C)C)n1)CCN2` ?
Key: 16700

* * *

# ASSAY METHOD TEXT: clinical
# STATED CONDITIONS: human, in vivo, single dose, PK lead-in phase of dose-escalation phase, 100 mg (n=3), mean; read-out: T1/2 (converted)
QUANTITY NAME: half-life (h)
Lab book: enter the figure in h, no units written.

Exercise: What measured half-life goes with COc1cc(N2CCC(N3CCN(C)CC3)CC2)ccc1Nc1nc2c(c(Nc3ccccc3S(=O)(=O)NC(C)C)n1)CCN2 [Conteltinib] ?
Key: 90.2

* * *

# ASSAY METHOD TEXT: clinical
# STATED CONDITIONS: human, in vivo, single dose, PK lead-in phase of dose-escalation phase, 300 mg (n=3), mean; read-out: AUCINF_obs
QUANTITY NAME: AUC(0-inf) (ng·h/mL)
Lab book: enter the figure in ng·h/mL, no units written.

Exercise: What measured AUC(0-inf) goes with COc1cc(N2CCC(N3CCN(C)CC3)CC2)ccc1Nc1nc2c(c(Nc3ccccc3S(=O)(=O)NC(C)C)n1)CCN2 [Conteltinib] ?
Key: 5110

* * *

# ASSAY METHOD TEXT: clinical
# STATED CONDITIONS: human, in vivo, cycle 1 day 28 of dose-escalation phase, 100 mg (n=3), mean; read-out: Tmax
# Procedure: For single-dose PK parameters, plasma samples were taken at pre-dose and 0.5 h, 1 h, 2 h, 3 h, 4 h, 6 h, 8 h, 12 h, 24 h, 48 h, 72 h, 96 h, 120 h, 144 h, and 168 h post-dose in PK lead-in phase of dose-escalation phase, and plasma samples were also taken at pre-dose and 0.5 h, 1 h, 2 h, 3 h, 4 h, 6 h, 8 h, 12 h, and 24 h post-dose in cycle 1 day 1 of dose-expansion phase. […]
QUANTITY NAME: Tmax (h)
Lab book: enter the figure in h, no units written.

Exercise: What measured Tmax goes with `COc1cc(N2CCC(N3CCN(C)CC3)CC2)ccc1Nc1nc2c(c(Nc3ccccc3S(=O)(=O)NC(C)C)n1)CCN2` ?
Key: 2.7

* * *

# ASSAY METHOD TEXT: clinical
# STATED CONDITIONS: human, in vivo, cycle 1 day 28 of dose-escalation phase, 50 mg (n=2), mean; read-out: Cmax
# Procedure: For single-dose PK parameters, plasma samples were taken at pre-dose and 0.5 h, 1 h, 2 h, 3 h, 4 h, 6 h, 8 h, 12 h, 24 h, 48 h, 72 h, 96 h, 120 h, 144 h, and 168 h post-dose in PK lead-in phase of dose-escalation phase, and plasma samples were also taken at pre-dose and 0.5 h, 1 h, 2 h, 3 h, 4 h, 6 h, 8 h, 12 h, and 24 h post-dose in cycle 1 day 1 of dose-expansion phase. […]
QUANTITY NAME: Cmax (ng/mL)
Lab book: enter the figure in ng/mL, no units written.

Exercise: What measured Cmax goes with `COc1cc(N2CCC(N3CCN(C)CC3)CC2)ccc1Nc1nc2c(c(Nc3ccccc3S(=O)(=O)NC(C)C)n1)CCN2` ?
Key: 42.7

* * *

# ASSAY METHOD TEXT: clinical
# STATED CONDITIONS: human, in vivo, single dose, PK lead-in phase of dose-escalation phase, 800 mg (n=3), mean; read-out: T1/2 (converted)
QUANTITY NAME: half-life (h)
Lab book: enter the figure in h, no units written.

Exercise: What measured half-life goes with `COc1cc(N2CCC(N3CCN(C)CC3)CC2)ccc1Nc1nc2c(c(Nc3ccccc3S(=O)(=O)NC(C)C)n1)CCN2` ?
Key: 77.2
